# Tested on: cells
# Assay info: Annexin binding apoptosis assay, cells treated with sapphyrins for 24 hrs
# Assay type: cell-based
# Measurement conditions: 0.5 Um sapphyrin
Readout: % Annexin positive cells after 24 hrs (sapphyrin dose)

Compound: CCc1c(CC)c2cc3nc(cc4[nH]c(c(CC)c4CC)c4[nH]c(cc5nc(cc1[nH]2)C(CCCOC(=O)NCCOCCOCCOC)=C5C)c(CC)c4CC)C(C)=C3CCCOC(=O)NCCOCCOCCOC
Observed: 10.6%
--
Compound: CCc1c(CC)c2cc3nc(cc4[nH]c(c(CC)c4CC)c4[nH]c(cc5nc(cc1[nH]2)C(CCCOC(=O)N(CCO)CCO)=C5C)c(CC)c4CC)C(C)=C3CCCOC(=O)N(CCO)CCO
Observed: Back
--
Compound: O=C1NC(=O)c2ccccc21 [Phthalimide]
Observed: back
--
Compound: CCc1c(CC)c2cc3nc(cc4[nH]c(c(CC)c4CC)c4[nH]c(cc5nc(cc1[nH]2)C(CCCOC(=O)NC(CO)(CO)CO)=C5C)c(CC)c4CC)C(C)=C3CCCOC(=O)NC(CO)(CO)CO
Observed: Back
